- Protocol notes: in vitro
- Setup conditions: mouse
Measure: viability at 24 h, 100 µg/mL (%)
Report the value in % with no unit label.

Memo: C/C=C(\C)[C@@H](OC(C)=O)[C@@H](C)C1=CC(=O)C2=C(O[C@]3(C)CC[C@H]4O[C@@H](C(C)(C)O)CC[C@]4(C)[C@H]3[C@@H]2O)C1=O [Compound 3, stemphone] , reported viability at 24 h, 100 µg/mL: 71.4

---

- Protocol notes: Cytotoxicity assay against lung cancer A549 cells, MTT
- Setup conditions: human, A549 lung cancer cells
Measure: viability at 24 h, 25 µg/mL (%)
Report the value in % with no unit label.

[[record]]
molecule = "CC[C@H](C)[C@@H](OC(C)=O)[C@@H](C)C1=CC(=O)C2=C(O[C@]3(C)CC[C@H]4O[C@@H](C(C)(C)O)CC[C@]4(C)C3=C2)C1=O [Compound 4, anhydrocochlioquinone A]"
unit_spec = "%"
experimental_value = 10.2


Memo: `CC[C@H](C)[C@@H](OC(C)=O)[C@@H](C)C1=CC(=O)C2=C(O[C@]3(C)CC[C@H]4O[C@@H](C(C)(C)O)CC[C@]4(C)[C@H]3[C@@H]2O)C1=O` , reported viability at 24 h, 25 µg/mL: 17.9

---

- Tested on: lung cancer A549 cells
- Protocol notes: Cytotoxicity assay against lung cancer A549 cells, MTT
- Setup conditions: Homo sapiens, A549, 24 h, read-out: IC50 cytotoxicity A549 (Lung Cancer)
Measure: IC50 (µM)
Report the value in µM with no unit label.

Memo: CC[C@H](C)[C@@H](OC(C)=O)[C@@H](C)C1=CC(=O)C2=C(O[C@]3(C)CC[C@H]4O[C@@H](C(C)(C)O)CC[C@]4(C)[C@H]3[C@@H]2O)C1=O [Compound 2, cochlioquinone A] , reported IC50: 14.3

---

Each entry below lists one item and its recorded viability at 24 h, 50 µg/mL value.
- Protocol notes: Cytotoxicity assay in mammalian cells (RAW 264.7), MTT
- Setup conditions: mouse, RAW 264.7 cells

[[record]]
compound = "CC[C@H](C)[C@@H](OC(C)=O)[C@@H](C)C1=CC(=O)C2=C(O[C@]3(C)CC[C@H]4O[C@@H](C(C)(C)O)CC[C@]4(C)C3=C2)C1=O [Compound 4, anhydrocochlioquinone A]"
measure = "viability at 24 h, 50 µg/mL"
experimental_value = "12.8%"


Kindly review the next compound as well.
Memo: `CC[C@H](C)[C@@H](OC(C)=O)[C@@H](C)C1=CC(=O)C2=C(O[C@]3(C)CC[C@H]4O[C@@H](C(C)(C)O)CC[C@]4(C)[C@H]3[C@@H]2O)C1=O` , reported viability at 24 h, 50 µg/mL: 11.7%

---

- Protocol notes: Cytotoxicity assay against colorectal cancer SW480 cells, MTT
- Setup conditions: human, SW480 colorectal cancer cells
Each entry below lists one item and its recorded viability at 24 h, 50 µg/mL value.
Report the value in % with no unit label.

[[record]]
compound = "CC[C@H](C)[C@@H](OC(C)=O)[C@@H](C)C1=CC(=O)C2=C(O[C@]3(C)CC[C@H]4O[C@@H](C(C)(C)O)CC[C@]4(C)[C@H]3[C@@H]2O)C1=O"
unit_spec = "%"
experimental_value = 15.6


Kindly review the next compound as well.
Memo: CC[C@H](C)[C@@H](OC(C)=O)[C@@H](C)C1=CC(=O)C2=C(O[C@]3(C)CC[C@H]4O[C@@H](C(C)(C)O)CC[C@]4(C)C3=C2)C1=O [Compound 4, anhydrocochlioquinone A] , reported viability at 24 h, 50 µg/mL: 14.7
